System: TNFα production
Experiment: Agonist activity: secreted TNFα in THP-1 macrophages in the absence of LPS
Assay type: cell-based, human
Conditions: concentration range showing agonist activity; human macrophage cells
observed property: Agonist activity

Known Agonist activity results, listed for orientation:
[[record]]
molecule = "CCCCCCCCCCCCCCO[C@H]1[C@@H](OC)O[C@H](COC(=O)CCC(=O)OC[C@H](NC(=O)OCC2c3ccccc3-c3ccccc32)C(=O)O)[C@@H](O)[C@@H]1OCCCCCCCCCCCCCC [Compound 24]"
value = "None observed"

[[record]]
molecule = "CCCCCCCCCCCCCC(=O)O[C@H]1[C@@H](OC)O[C@H](COC(=O)CCC(=O)OC[C@H](NC(=O)OCC2c3ccccc3-c3ccccc32)C(=O)O)[C@@H](O)[C@@H]1OC(=O)CCCCCCCCCCCCC [Compound 19]"
value = "10 to 30 µM"

[[record]]
molecule = "CO[C@H]1OC(COC(=O)CCC(=O)OC[C@H](NC(=O)OCC2c3ccccc3-c3ccccc32)C(=O)O)[C@@H](O)[C@H](OCc2ccccc2)C1OCc1ccccc1 (stereo partly shown) [Compound 11]"
value = "None observed"

[[record]]
molecule = "CCCCCCCCCCCCCCO[C@H]1[C@@H](OC)O[C@H](C[N+](C)(C)C2CCCC2)[C@@H](O)[C@@H]1OCCCCCCCCCCCCCC [Compound 4, reference compound]"
value = "30 to 100 µM"

[[record]]
molecule = "CO[C@H]1O[C@H](COC(=O)CCC(=O)OC[C@H](N)C(=O)O)[C@@H](O)[C@H](OCc2ccccc2)[C@H]1OCc1ccccc1 [Compound 13]"
value = "None observed"

[[record]]
molecule = "CO[C@H]1OC(COC(=O)CCC(=O)OC[C@H](NC(=O)OCC2c3ccccc3-c3ccccc32)C(=O)OC(C)(C)C)[C@@H](O)[C@H](OCc2ccccc2)C1OCc1ccccc1 (stereo partly shown) [Compound 10]"
value = "None observed"


Moving on to another molecule below.
Data request, read-out Agonist activity, for CO[C@H]1O[C@H](COC(=O)CCC(=O)OC[C@H](N)C(=O)OC(C)(C)C)[C@@H](O)[C@H](OCc2ccccc2)[C@H]1OCc1ccccc1 [Compound 12]
None observed

Data provenance is patent US9120838B2.
